ASSAY_PROTOCOL: solvent given as SMILES
CONDITION_PARAMETERS: in CO

COMPOUND | absorption maximum, nm
c1ccc(C2CCN3COc4c5ccccc5c5c6c7c(c2c3c46)C(c2ccccc2)CCN7CO5)cc1 (configuration not stated) | 402
O=C(O)c1ccc(C2=C(/C=C/c3[se]c4ccccc4[n+]3CCCCS(=O)(=O)[O-])CCC/C2=C\C=C2/[Se]c3ccccc3N2CCCCS(=O)(=O)[O-])cc1 | 800
CCCCC[n+]1ccc(/C=C/c2ccc(N(C)C)c3ccccc23)c2ccccc21 | 503
CN(C)c1ccc(/C=C/c2cc[n+](CCCCC[n+]3ccc(/C=C/c4ccc(N(C)C)cc4)cc3)cc2)cc1 | 484
CN(c1ccccc1)c1ccc(/C=C2\C(=O)c3ccccc3S2(=O)=O)cc1 | 475
CN(C)c1ccc(/C=C/c2cc[n+](CCCOCC(COCCC[n+]3ccc(/C=C/c4ccc(N(C)C)cc4)cc3)(COCCC[n+]3ccc(/C=C/c4ccc(N(C)C)cc4)cc3)COCCC[n+]3ccc(/C=C/c4ccc(N(C)C)cc4)cc3)cc2)cc1 | 486
O=C([O-])c1ccccc1-c1c2cc(I)c(=O)c(I)c-2oc2c(I)c([O-])c(I)cc12 | 526

----------
ASSAY_PROTOCOL: solvent given as SMILES
CONDITION_PARAMETERS: in ClCCl

COMPOUND | absorption maximum / nm
O=C1C2=C(O[B-](F)(F)[n+]3c2ccc2ccccc23)c2ccc(N3CCOCC3)c3cccc1c23 | 468
O=C(N/N=C/c1ccccc1O)c1ccc([N+](=O)[O-])cc1 | 340
CCCCCCCCCCCCC(CCCCCCCCCC)Cn1c2cc(/C=C/C=C/c3nc4ccccc4s3)c3cccc4c5cccc6c(/C=C/C=C/c7nc8ccccc8s7)cc1c(c65)c2c34 (centres undefined) | 538
Clc1ccc(/C=C/c2cnc3ccccc3n2)cc1 | 355
CCCCCCOc1cc(C=O)c(OCCCCCC)cc1C=O | 403
C#Cn1c(-c2cc(-c3nc4ccccc4n3C#C)cc(-c3nc4ccccc4n3C#C)c2)nc2ccccc21 | 305.5
CN(C)c1ccc(/C=C/c2cc(/C=C/c3ccc(N(C)C)cc3)nc(/C=C/c3ccccc3)n2)cc1 | 423
C(=C\c1cccc2ccccc12)/c1ncc(-c2ccccc2)o1 | 357
O=C1c2cc3ccccc3cc2C2=Nc3ccc4ccccc4[n+]3[B-](F)(F)N12 | 419

----------
ASSAY_PROTOCOL: solvent given as SMILES
CONDITION_PARAMETERS: in C1COCCO1

COMPOUND | absorption maximum
CN(C)c1ccc(/C=C/C(=O)O)cc1 | 356 nm
Cc1cc(O)c(C(C)C)cc1/N=C/c1ccc([N+](=O)[O-])cc1 | 393 nm
c1ccc(-c2nc3c(ccc4[nH]ccc43)o2)cc1 | 333 nm
COc1ccc(C#Cc2ccc(C#N)cc2)cc1 | 330 nm
CN(C)c1ccc(C2=Cc3cccc[n+]3[B-](F)(F)O2)cc1 | 417 nm
CN(C)c1ccc2nc(/C=C/c3cc4c5c(c3)CCCN5CCC4)c(=O)oc2c1 | 495.5 nm
CCCCCCCCC1(CCCCCCCC)c2cc(-c3ccc(C(F)(F)F)cc3)ccc2-c2ccc(N(c3ccc(-n4c5ccccc5c5ccccc54)cc3)c3ccc4c(c3)C(CCCCCCCC)(CCCCCCCC)c3cc(-c5ccc(C(F)(F)F)cc5)ccc3-4)cc21 | 374 nm
CC1(C)CC(=O)C2=C(C1)Oc1ccc3cc(O)ccc3c1C2c1ccccn1 (centres undefined) | 347 nm
CCC1=C(C2=C(C3=C(CC)S(=O)(=O)c4cc(-c5ccc(C)s5)ccc43)C(F)(F)C(F)(F)C2(F)F)c2ccc(-c3ccc(C)s3)cc2S1(=O)=O | 374 nm

----------
ASSAY_PROTOCOL: solvent given as SMILES
CONDITION_PARAMETERS: in ClCCl
One threshold, 400 nm, splits the recorded absorption maximum values: lower ones are satisfied, equal or higher ones are not satisfied.

MOLECULE | ASSIGNED_LABEL
CCc1ccc(C2=[N+]3C(=Cc4c5ccc(OC)cc5c(-c5ccc(CC)s5)n4[B-]3(F)F)c3ccc(OC)cc32)s1 | not satisfied
COc1ccc(-c2cc(-c3ccc(C#N)cc3)nn2C)cc1 | satisfied
CC(=O)c1c(N[C@@H](Cc2ccc(O)cc2)C(=O)O)c2ccc(N(C)C)cc2oc1=O | satisfied
CCOC(=O)c1c(-c2cc3ccccc3oc2=O)nn(-c2cccc(F)c2)c1C(=O)OCC | satisfied
O=Cc1ccc(/C=C/c2nc(N3CCOCC3)c3c([n+]2[O-])CCCC3)cc1 | not satisfied
c1ccc(-c2nc(-c3c[nH]c4ccccc34)n3ccccc23)cc1 | satisfied
CCOC(=O)c1ccc(C2CC(c3cccc4ccccc34)=NN2c2ccc(Cl)cc2)cc1 (centres undefined) | satisfied
CN(c1ccccc1)c1ccc(/C=C2\C(=O)c3ccccc3S2(=O)=O)cc1 | not satisfied

----------
ASSAY_PROTOCOL: solvent given as SMILES
CONDITION_PARAMETERS: in O
PROPERTY_LABEL: absorption maximum (nm)

COMPOUND | UNIT_OF_MEASURE | READING
CCCN1/C(=C/C=C(/C=C/C2=[N+](CCC)c3ccccc3C2(C)C)c2ccc3ccccc3n2)C(C)(C)c2ccccc21 | nm | 633
CCCCOC(=O)c1ccccc1-c1c2ccc(=[N+](CC)CC)cc-2oc2cc(N(CC)CC)ccc12 | nm | 558
CNCCCC1c2ccccc2C=Cc2ccccc21 | nm | 292
Nc1ccc2ccc([O-])cc2c1 | nm | 342
CC/[NH+]=c1\cc2oc3cc(NCCC(=O)NC(C(=O)OC)C(C)C)c4ccccc4c3nc-2cc1C (stereo unspecified) | nm | 580
[C-]#[N+]c1ccc(-c2ccc(N(C)C)cc2)cc1 | nm | 315

----------
ASSAY_PROTOCOL: solvent given as SMILES
CONDITION_PARAMETERS: in Cc1ccccc1
absorption maximum vs 400 nm: less than gives Met; not less than gives Not met.

COMPOUND_SMILES | ASSIGNED_LABEL
COc1ccccc1C1=[N+]2C(=Nc3c(-c4ccccc4)cc(-c4ccccc4OC)n3[B-]2(F)F)C(c2ccccc2)=C1 | Not met
CCn1c2ccsc2c2c3nsnc3c3c4sccc4n(CC)c3c21 | Not met
CC1(C)c2ccccc2N(c2ccccc2)c2ccc(C(=O)c3ccc4c(c3)C(C)(C)c3ccccc3N4c3ccccc3)cc21 | Met
COc1ccccc1-c1nc2c3cccnc3c3ncccc3c2n1-c1ccccc1 | Met
CC1(C)c2ccccc2N(c2ccc(-c3nc(C#N)c(C#N)nc3-c3ccc(N4c5ccccc5C(C)(C)c5ccccc54)cc3)cc2)c2ccccc21 | Not met
CC1=CC(C)=[N+]2C1=C(c1c3ccccc3c(-c3ccccc3)c3ccccc13)c1c(C)cc(C)n1[B-]2(F)F | Not met
COc1ccc2c3ccc(OC)cc3n(-c3ccc(-c4nnc(-c5c(C(C)C)cc(C(C)C)cc5C(C)C)o4)cc3)c2c1 | Met
c1ccc2c(c1)c1ccccc1n2-c1ccc(-c2ccc(-n3c4ccccc4c4ccccc43)nc2-n2c3ccccc3c3ccccc32)nn1 | Met

----------
Below, each of the compounds is paired with its reported absorption maximum value.
ASSAY_PROTOCOL: solvent given as SMILES
CONDITION_PARAMETERS: in ClCCl

COMPOUND | absorption maximum / nm
CC(C)[Si]1(C(C)C)c2cc(C#N)ccc2-c2ccc(N(C)C)cc21 | 368
COc1ccc(-c2csc(-c3ccncc3)n2)cc1 | 401
COc1ccc(-c2sc3c(-c4ccc(OC)cc4)c4n(c3c2-c2ccc(OC)cc2)[B-](F)(F)[N+]2=Cc3c(-c5ccc(OC)cc5)c5sc(-c6ccc(OC)cc6)c(-c6ccc(OC)cc6)c5n3[B-](F)(F)[N+]2=C4)cc1 | 600
CCCCCCCCC1(CCCCCCCC)c2cc(-c3ccc(C(F)(F)F)cc3)ccc2-c2ccc(N(c3ccc(-n4c5ccccc5c5ccccc54)cc3)c3ccc4c(c3)C(CCCCCCCC)(CCCCCCCC)c3cc(-c5ccc(C(F)(F)F)cc5)ccc3-4)cc21 | 378
COc1ccc(-c2cc3c(ccc4sc(/C=C/c5cccs5)cc43)s2)cc1 | 376
CCCCCCCCCCCCC(CCCCCCCCCC)Cn1c2cc(/C=C/c3nc4ccccc4s3)c3cccc4c5cccc6c(/C=C/c7nc8ccccc8s7)cc1c(c65)c2c34 (configuration not stated) | 521
O=C(/C=C/c1cn(-c2ccccc2)nc1-c1ccccc1)c1c(O)c2ccccc2oc1=O | 404

----------
ASSAY_PROTOCOL: solvent given as SMILES
CONDITION_PARAMETERS: in CC#N
absorption maximum vs 400 nm: at or above is condition met, below is condition not met.

MOLECULE | ASSIGNED_LABEL
COc1ccc2c(c1)C(=O)c1ccccc1-2 | condition met
Cc1ccc2nc3c(nc2c1)c(-c1ccccc1)nn3C | condition met
CCCCCCCCCCCCC(CCCCCCCCCC)Cn1c2cc(/C=C/c3nc4ccccc4s3)c3cccc4c5cccc6c(/C=C/c7nc8ccccc8s7)cc1c(c65)c2c34 (centres undefined) | condition met
CC1(C)CC(=O)C2=C(C1)Oc1ccc3ccc(O)cc3c1C2c1ccccn1 (centres undefined) | condition not met
CCCCC[n+]1ccc(/C=C/c2ccc(N(C)C)c3ccccc23)c2ccccc21 | condition met
CCN(CC)c1ccc(/C=C/C2=[O+][B-](F)(F)Oc3c2c(=O)oc2cc(N(CC)CC)ccc32)cc1 | condition met
CC1(C)CC(/N=C/c2ccc3ccc4cccc5ccc2c3c45)CC(C)(C)N1 | condition not met
FC(F)(F)c1ccc(/C=C/c2nc3c(ccc4ccccc43)s2)cc1 | condition not met
CCCSc1ccc2n1[B-](F)(F)[N+]1=CC=CC1=C2c1ccccc1 | condition met
CN(C)c1ccc(/C=C/c2cc[n+](CCCCC[n+]3ccc(/C=C/c4ccc(N(C)C)cc4)cc3)cc2)cc1 | condition met
c1ccc(-n2c(-c3ccc(-n4c5ccccc5c5ccccc54)cc3)nc3nccnc32)cc1 | condition not met
COc1ccc2n1[B-](F)(F)[N+]1=C(SC#N)C=CC1=C2c1ccccc1 | condition met
COc1ccc(-c2sc3c(-c4ccc(OC)cc4)c4n(c3c2-c2ccc(OC)cc2)[B-](F)(F)[N+]2=Cc3c(-c5ccc(OC)cc5)c5sc(-c6ccc(OC)cc6)c(-c6ccc(OC)cc6)c5n3[B-](F)(F)[N+]2=C4)cc1 | condition met
O=C1/C(=C\c2ccc(N(c3ccccc3)c3ccccc3)cc2)S(=O)(=O)c2ccccc21 | condition met
Cc1cc(=O)oc2c3c4c(cc12)CCCN4CCC3 | condition not met
O=c1oc2ccccc2cc1-c1ccc([N+](=O)[O-])cc1 | condition not met
c1ccc(N(c2ccccc2)c2ccc(-c3nc4ccccc4n3-c3ccccc3)cc2)cc1 | condition not met
